- test-target: proMMP13(1-268) (SEQ ID NO:7) (Homo sapiens, UniProt P45452)
- experiment-summary: ThermoFluor binding assay with proMMP13(1-268)
- conditions-used: pH 7.0
test-readout: Kd (nM)
Enter your answer as a number in nM; do not include the unit.

[[record]]
entry_smiles = "CCOc1ccc(-c2ncco2)cc1Nc1nc(-c2sc(N)nc2C)cs1"
measured = 240


Turning now to a further molecule:
Which measured Kd value corresponds to Cc1nc(C)c(-c2csc(Nc3cc(S(N)(=O)=O)ccc3OC(C)C)n2)s1 ?
140

----------
- test-target: proMMP9(20-445;ΔFnII) (SEQ ID NO:6) (Homo sapiens, UniProt P14780, DEL216-390)
- Construct: start methionine (N)
- experiment-summary: ThermoFluor binding assay with proMMP9(20-445;ΔFnII)
- conditions-used: pH 7.0
test-readout: pKd
pKd is defined as minus the log10 of a concentration measured in mol/L.

[[record]]
compound = "Cc1nc(CN2CCCC2)sc1-c1csc(Nc2cc(C(N)=O)ccc2OC(C)C)n1 [Example 130]"
test_readout = "pKd"
measured = 6.26

[[record]]
compound = "CNC(=O)c1ccc(OC)c(Nc2nc(-c3sc(N)nc3C)cs2)c1 [Example 66]"
test_readout = "pKd"
measured = 5.55

[[record]]
compound = "Cc1nc(CN2CCN(C(C)C)CC2)sc1-c1csc(Nc2cc(C(N)=O)ccc2OC(C)C)n1 [Example 125]"
test_readout = "pKd"
measured = 6.24

[[record]]
compound = "COc1ccc(C(=O)O)cc1Nc1nc(-c2sc(N)nc2C)cs1 [Example 55]"
test_readout = "pKd"
measured = 5.60

[[record]]
compound = "COc1ccncc1Nc1nc(-c2sc(N3CCN(C)CC3)nc2C)cs1 [Example 155]"
test_readout = "pKd"
measured = 5.72


Entry COc1ccc(C(=O)NCc2ccccc2)cc1Nc1nc(-c2sc(N)nc2C)cs1 [Example 56] has what pKd?
5.89

# get_value(readout='pKd', item= CCS(=O)(=O)c1ccc(OC)c(Nc2nc(-c3sc(C)nc3C)cs2)c1 [Example 50] )
5.89

Fill in the blank: the reported pKd of CCS(=O)(=O)c1ccc(OC)c(Nc2nc(-c3sc(N)nc3C)cs2)c1 [Example 51] is ____.
5.96

----------
pKd listing for selected compounds.
- test-target: proMMP9(20-445;ΔFnII) (SEQ ID NO:6) (Homo sapiens, UniProt P14780, DEL216-390)
- Construct: start methionine (N)
- experiment-summary: ThermoFluor binding assay with proMMP9(20-445;ΔFnII)
- conditions-used: pH 7.0
Worth noting: pKd values are minus log10 of concentrations stated in mol/L.

// worked examples, pKd included
[[record]]
compound = "CCOc1ccc(C(=O)O)cc1Nc1nc(-c2sc(C)nc2C)cs1"
measured = 5.74

[[record]]
compound = "Cc1nc(C)c(-c2nc(Nc3cc(S(N)(=O)=O)ccc3OC(C)C)sc2F)s1"
measured = 6.52

[[record]]
compound = "CCOc1ccc(C(N)=O)cc1Nc1nc(-c2sc(C(=O)NC3CCN(C(C)C)CC3)nc2C)cs1"
measured = 6.08

[[record]]
compound = "COc1ccc(C#N)cc1Nc1nc(-c2sc(C)nc2C)cs1"
measured = 5.96


Report pKd for Cc1ccc(C(N)=O)cc1Nc1nc(-c2sc(N)nc2C)cs1 please.
5.57

# get_value(readout='pKd', item= CCCOc1ccc(C(N)=O)cc1Nc1nc(-c2sc(C)nc2C)cs1 )
6.08

What does the data say about its pKd? Entry: CC(C)Oc1ccc(C(N)=O)cc1Nc1nc(-c2sc(N)nc2C(F)(F)F)cs1
6.80

Any idea what its pKd is? The compound is COc1ccc(C(F)(F)F)cc1Nc1nc(-c2sc(N)nc2C)cs1
5.19

Query: pKd; subject: CCOc1ccc(-c2ncco2)cc1Nc1nc(-c2sc(NC(C)=O)nc2C)cs1
4.82

Could you share which pKd value was measured for Cc1nc(C(=O)NC2CCN(C(C)C)CC2)sc1-c1csc(Nc2cc(C(N)=O)ccc2OC(C)C)n1 ?
7.07

Which value of pKd has been reported for COc1ncccc1Nc1nc(-c2sc(NC(C)=O)nc2C)cs1 in the records?
4.92

I'd like to know its pKd. The compound in question is Cc1nc(CN2CCCCC2)sc1-c1csc(Nc2cc(C(N)=O)ccc2OC(C)C)n1
6.30

----------
- test-target: full-length proMMP9(1-707) (SEQ ID NO:1) (Homo sapiens, UniProt P14780, R574P)
- Construct: made in house; host or cells: HEK293 (proMMP9, secreted); E. coli (MMP3)
- experiment-summary: proMMP9/MMP3 P126 Activation Assay
- Format: biochemical
- conditions-used: 20 nM proMMP9, 20 nM MMP3, 80 min 37° C.
Catalogue of pIC50 readings, one per entry.
Scale explanation: pIC50 corresponds to minus log10 of a concentration expressed in moles per litre.

These solved cases illustrate the format of a correct answer.
[[record]]
entry_smiles = "CCOc1ccc(C(N)=O)cc1Nc1nc(-c2sc(C(=O)N3CCCN(C(C)C)CC3)nc2C)cs1"
measured = 6.30

[[record]]
entry_smiles = "CCOc1ccc(-c2ncco2)cc1Nc1nc(-c2sc(N)nc2C)cs1"
measured = 6.26


Missing value: pIC50, full-length proMMP9(1-707) (SEQ ID NO:1) (Homo sapiens, UniProt P14780, R574P), entry COc1ccc(C(N)=O)cc1Nc1nc(-c2sc(NC(C)=O)nc2C)cs1 . Fill in?
6.57

----------
- test-target: proMMP9(67-444;ΔFnII) (SEQ ID NO:5) (Homo sapiens, UniProt P14780, DEL216-390)
- Construct: start methionine (N)
- Sequence (P14780 with tags, fused parts or gaps DEL216-390): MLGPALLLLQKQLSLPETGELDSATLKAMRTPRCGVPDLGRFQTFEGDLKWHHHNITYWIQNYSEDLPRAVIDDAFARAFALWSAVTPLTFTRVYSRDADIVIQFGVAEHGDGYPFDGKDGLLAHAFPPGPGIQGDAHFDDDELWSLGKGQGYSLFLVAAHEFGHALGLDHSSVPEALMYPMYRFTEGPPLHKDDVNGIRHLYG
- experiment-summary: ThermoFluor binding assay with proMMP9(67-444;ΔFnII)
- conditions-used: pH 7.0
Quick list: Kd per entry.
Write the number in nM without appending the unit.

[[record]]
compound = "Cc1nc(Nc2ccccn2)sc1-c1csc(Nc2cc(C(N)=O)ccc2OC(C)C)n1 [Example 96]"
test_readout = "Kd"
unit_symbol = "nM"
measured = 3800

[[record]]
compound = "Cc1nc(C(=O)N2CCCN(C)CC2)sc1-c1csc(Nc2cc(C(N)=O)ccc2OC(C)C)n1 [Example 104]"
test_readout = "Kd"
unit_symbol = "nM"
measured = 610

[[record]]
compound = "COc1ccc(NC(C)=O)cc1Nc1nc(-c2sc(N)nc2C)cs1 [Example 84]"
test_readout = "Kd"
unit_symbol = "nM"
measured = 9700


Return reported Kd; argument: CCS(=O)(=O)c1ccc(OC)c(Nc2nc(-c3sc(NC(C)=O)nc3C)cs2)c1 [Example 49]
2500

What does the data say about its Kd? Entry: Cc1nc(C)c(-c2csc(Nc3cc(S(N)(=O)=O)ccc3OC(C)C)n2)s1 [Example 64]
260

----------
- test-target: proMMP9(20-445;ΔFnII) (SEQ ID NO:6) (Homo sapiens, UniProt P14780, DEL216-390)
- Construct: start methionine (N); made in house; host or cells: E. coli BL21(DE3) RIL
- experiment-summary: ThermoFluor binding assay with proMMP9(20-445;ΔFnII)
- conditions-used: pH 7.0
- Description: The ThermoFluor® (TF) assay is a 384-well plate-based binding assay that measures thermal stability of proteins (Biomol Screen 2001, 6, 429-40; Biochemistry 2005, 44, 5258-66). The experiments were carried out using instruments available from Johnson & Johnson Pharmaceutical Research & Development, LLC. TF dye used in all experiments was […] (1,8-ANS) (Invitrogen: A-47). […]
Definition: the class of an entry is the range in bucket 1 (below 400 nM), bucket 2 (400 nM to below 2000 nM), bucket 3 (2000 nM or more) that contains its Kd.

Solved cases (2 shown):
[[record]]
entry_smiles = "COc1ccc(S(C)(=O)=O)cc1Nc1nc(-c2sc(NC(C)=O)nc2C)cs1"
class_name = "bucket 2"

[[record]]
entry_smiles = "COc1ccc(-c2cc[nH]n2)cc1Nc1nc(-c2sc(C)nc2C)cs1"
class_name = "bucket 3"


Hello team, could you let me know which band the following compound falls into: Cc1nc(C(=O)N(C)C)sc1-c1csc(Nc2cc(C(N)=O)ccc2OC(C)C)n1
bucket 2

Which class does Cc1nc(Nc2ccccn2)sc1-c1csc(Nc2cc(C(N)=O)ccc2OC(C)C)n1 fall in?
bucket 1

Category lookup for the compound COc1c(F)cc(C(N)=O)cc1Nc1nc(-c2sc(C)nc2C)cs1
bucket 3

Class? Entry: COc1cc(C(N)=O)ccc1Nc1nc(-c2sc(C)nc2C)cs1
bucket 3

# classify by Kd band: CCN(CC)c1nc(C)c(-c2csc(Nc3cc(C(N)=O)ccc3OC(C)C)n2)s1
bucket 1

Note: place this compound into its band. Item: Cc1nc(C(=O)N2CCN(C)CC2)sc1-c1csc(Nc2cc(C(N)=O)ccc2OC(C)C)n1
bucket 1

Record COc1ccc(C(N)=O)cc1Nc1nc(-c2sc(NC(C)=O)nc2C)cs1 — which class?
bucket 3

Using the reported Kd, which band applies to COc1ccc(S(N)(=O)=O)cc1Nc1nc(-c2sc(N)nc2C)cs1 ?
bucket 2

Which category fits this record: Cc1nc(C)c(-c2csc(Nc3cc(S(N)(=O)=O)ccc3OC(F)(F)F)n2)s1
bucket 2

State the band of COc1ccc(C)cc1Nc1nc(-c2sc(N)nc2C)cs1
bucket 3

Which bin should I file COc1ccc([N+](=O)[O-])cc1Nc1nc(-c2sc(NC(C)=O)nc2C)cs1 under?
bucket 1

Returns: class label. Input: CCOC(=O)c1ccc(OCC)c(Nc2nc(-c3sc(N)nc3C)cs2)c1
bucket 2

For the record Cc1nc(C(=O)N2CCC(O)CC2)sc1-c1csc(Nc2cc(C(N)=O)ccc2OC(C)C)n1 , report the class its Kd corresponds to.
bucket 1

Record COc1ccc(S(N)(=O)=O)cc1Nc1nc(-c2sc(C)nc2C)cs1 — which class?
bucket 2

Tag the class for COc1ccc(C(=O)O)cc1Nc1nc(-c2sc(NC(C)=O)nc2C)cs1
bucket 3

Exam item: assign C=Cc1ccc(OC)c(Nc2nc(-c3sc(C)nc3C)cs2)c1 to the correct category.
bucket 3

Each compound maps to one class by Kd. Which class for COc1ccc(-c2cccnc2)cc1Nc1nc(-c2sc(C)nc2C)cs1 ?
bucket 3

Into which category would you place CCOc1ccc(C(N)=O)cc1Nc1nc(-c2sc(C(=O)N3CCN(C(C)C)CC3)nc2C)cs1 ?
bucket 2

Lab note: sort Cc1nc(Nc2ccncc2)sc1-c1csc(Nc2cc(C(N)=O)ccc2OC(C)C)n1 into the matching Kd band.
bucket 1

Please report the category associated with COc1cc(Nc2nc(-c3sc(C)nc3C)cs2)c2ncccc2c1 , nothing else.
bucket 3

Which of the defined bands does the recorded Kd of Cc1nc(C)c(-c2csc(Nc3cc(S(N)(=O)=O)ccc3OC(C)C)n2)s1 sit within?
bucket 1
